# Test system: CD2F1 mice, L1210 leukemia ip, survival T/C
# Assay Comment: NCI In Vivo Anticancer Drug Screen. Data for tumor model L1210 Leukemia (intraperitoneal) in CD2F1 (CDF1) mice
# Protocol Conditions: endpoint: mean survival time; dose: 12.5 mg/kg/injection; schedule: Q04DX003 (ip); vehicle: saline with Tween-80
# Method: The antitumor activity of compounds was measured in mice bearing transplantable tumors. Survival or tumor size were measured and the results are expressed as the measurement made in the treated group (T) divided by the measurement made in the vehicle treated control group (C). The tumor model used in this assay is L1210 Leukemia (intraperitoneal) in CD2F1 (CDF1) mice
Toxic doses and inconclusive results are not listed. Rule for the calls: active = survival T/C of 150% or more; inactive = T/C below 125% in these data.
The categories you may choose from are active, inactive

Kindly provide the recorded test outcome for the following compound: `COc1ccc([I+]c2ccc(OC)cc2)cc1`
inactive

Kindly provide the recorded test outcome for the following compound: CC(O)C[As](=O)(O)c1ccc(Cl)cc1 (configuration not stated)
inactive

Kindly provide the recorded test outcome for the following compound: `O=[N+]([O-])c1c(Br)sc(Br)c1[N+](=O)[O-]`
inactive

Kindly provide the recorded test outcome for the following compound: `CN1CC2(c3ccccc3)CN(C)CC(c3ccccc3)(C1)C2=O`
inactive

Kindly provide the recorded test outcome for the following compound: CC([NH-])C([NH-])O.[I][Pt+2][I] (configuration not stated)
inactive

Kindly provide the recorded test outcome for the following compound: O=C(O)C(=O)O.[NH-]C(c1ccccc1)C([NH-])c1ccccc1.[Pt+2] (configuration not stated)
inactive

Kindly provide the recorded test outcome for the following compound: `[Cl][Pt+2][Cl].[NH-]CC1([NH-])CCCCC1`
active

Kindly provide the recorded test outcome for the following compound: O=C(NCc1ccccc1)C1C2CC3OC(=O)C1C3C2 (configuration not stated)
inactive

Kindly provide the recorded test outcome for the following compound: `Cl`
inactive

Kindly provide the recorded test outcome for the following compound: `CC(=O)[O][Hg][c]1cc(-c2ccc(N=Nc3c(S(=O)(=O)O)cc4cccc(N)c4c3O)cc2)ccc1N=Nc1c(S(=O)(=O)O)cc2cccc(N)c2c1O`
inactive

Kindly provide the recorded test outcome for the following compound: `C=CC#N`
inactive

Kindly provide the recorded test outcome for the following compound: COc1cc2c(cc1OC)C1C(=CCC3c4cc(OC)c(OC)cc4CC[N+]31C)C=C2 (configuration not stated)
inactive

----------
# Tested on: CD2F1 mice, L1210 leukemia ip, survival T/C
# Assay Comment: NCI In Vivo Anticancer Drug Screen. Data for tumor model L1210 Leukemia (intraperitoneal) in CD2F1 (CDF1) mice
# Protocol Conditions: endpoint: mean survival time; dose: 200.0 mg/kg/injection; schedule: Q01DX009 (ip); vehicle: other; higher = longer survival
Toxic doses and inconclusive results are not listed.
Observed Property: T/C

# T/C (molecule: `COc1ccc(OC)c2c1CCC(=O)C2` ) is 107 % of control

# T/C (molecule: CC(=O)OCC1(OC2OC(CNC(=O)N(C)N=O)C(OC(C)=O)C(OC(C)=O)C2OC(C)=O)OC(CNC(=O)N(C)N=O)C(OC(C)=O)C1OC(C)=O (stereo not given) ) is 119 % of control

# T/C (molecule: `Oc1ccc(SSc2ccc(O)cc2)cc1` ) is 101 % of control

# T/C (molecule: `CC(C)OC(=O)Nc1ccc(F)cc1` ) is 91 % of control

# T/C (molecule: `CCOC(=O)C(C(=O)OCC)N(Cc1ccccc1)Cc1ccccc1` ) is 90 % of control

# T/C (molecule: `Nc1ccc(C(O)(C(F)(F)F)C(F)(F)F)c(C(=O)O)c1` ) is 106 % of control

# T/C (molecule: `Cc1ccc(S(=O)(=O)SCc2ccccc2)cc1` ) is 96 % of control

# T/C (molecule: `CCN(N=O)C(=O)N(Cc1ccccc1)Cc1ccccc1` ) is 96 % of control

# T/C (molecule: CC(O)(CCc1ccccc1)CC(O)(C(F)(F)F)C(F)(F)F (stereo not given) ) is 102 % of control

# T/C (molecule: `CNC(=O)NCc1ccc(C(=O)NC(C)C)cc1` ) is 100 % of control
